System: HIV-2 (ROD/A)
ASSAY REMARKS: Chronic HIV-2 replication in HeLa-CD4 cells, p27 antigen
Type: cell-based
REPORTED CONDITIONS: read-out: EC50, chronic HIV-2 infection; p27 7 days post-treatment
pEC50: −log10 of the molar value.
READOUT NAME: pEC50

Q) Give me measured pEC50, please, for this compound: CN(C)[C@H]1C[C@@]23CC[C@@]4(O2)C(=CC[C@]2(C)C(c5ccc6ccncc6c5)=CC[C@H]24)C=C3[C@@H](O)[C@@H]1O [dCA, didehydro-Cortistatin A]
A) ~8.77
